ASSAY_OVERVIEW: Stability of compound in human plasma assessed as half life
Assay type: ADME, cell-free
READOUT_KIND: half-life (h)
The answer is to be given in h; state only the numeric part.

So, `CC(=O)Nc1cc2c(c(-c3cccc(C)c3C)n1)CCCN2` ? Its half-life was 4.2

---

// reported Papp B→A per item
ASSAY_OVERVIEW: Permeability across basolateral to apical side in human Caco2 cells
Format: ADME, cell-based
TEST_SETTINGS: Caco-2, read-out: permeability
The answer is to be given in ×10⁻⁶ cm/s; state only the numeric part.

Nc1nc2cccc(-c3cccc(Cl)c3Cl)n2n1: 34
CC(=O)Nc1cc2ncccc2c(-c2cccc(C)c2C)n1: 45

Query molecule follows.
So, `CC(=O)Nc1cc2c(c(-c3cccc(C)c3C)n1)CCCN2` ? Its Papp B→A was 32
